The reported numbers originate from patent US20100261660A1.

- TESTED_ON: T1, Soluble CTLA-4-Ig (extracellular domain of human CTLA-4 fused to the Fc portion of human IgG1) (human, UniProt P16410 36-161, FITC-conjugated in the FACS binding assays)
- T1 construct: extracellular domain; bought from R&D Systems; also called sCTLA-4-Ig; CTLA-4-Ig Fc; not shown: Fc portion of human IgG1
- MEASUREMENT_PROTOCOL: competitive FACS on transfected cells, FITC-sCTLA-4-Ig with biotin-sCD28-Ig; grade 0-2 of CTLA-4/CD28 ratio vs WT hB7-1
Listed next: entries and their corresponding Binding Score.
// keep it numeric: no unit symbol after the value

BINDER	Binding Score
Round 2 CTLA4BP 5x6-f6 (ligand) VIHVTKEVKEVATLSCGHNVSVEELAQTPIYWQKEKKMVLTMMSGDMNIWPEYKNRTIFDITNNLSIVILALRPSDEGTYECVVLKYEKDAFKREHLAEVMLSVKADFPTPSITDFEIPPSNIRRIICSTSGGFPEPHLFWLENGEELNAINTTVSQDPETELYTVSSKLDFNMTTNRSFVCLIKYGHLRVNQTFNWNTPKQEHFPDNLLPSWAITLISANGIFVICCLTYRFAPRCRERRRNERLRRESVCPV	1

# evaluate next
*Q* Quick one: Binding Score for Round 2 CTLA4BP-5x5-6e (ligand) VIHVTKEVKEVATLSCGHNVSVEELAQTRIHWQKEKKMVLTMMSGDMNIWPEYKNRTIFDITNNLSIVILALRPSDEGTYECVVLKYEKDAFKREHLAEVMLSVKADFPTPSITDFEIPPSNIRRIICSTSGGFPEPHLSWLENGEELNAISTTVSQDPETELYTVSSKLDFNMTTNHSFMCLIKYGHLRVNQTFNWNTTKQEHFPDNLLPSWAITLISANGIFVICCLTHCFAPRCRERKRNERLRRESVRPV ?
*A* 2
